# target under test: EGFR wildtype (WT) (Homo sapiens, UniProt P00533)
# Sequence (P00533 25-1210): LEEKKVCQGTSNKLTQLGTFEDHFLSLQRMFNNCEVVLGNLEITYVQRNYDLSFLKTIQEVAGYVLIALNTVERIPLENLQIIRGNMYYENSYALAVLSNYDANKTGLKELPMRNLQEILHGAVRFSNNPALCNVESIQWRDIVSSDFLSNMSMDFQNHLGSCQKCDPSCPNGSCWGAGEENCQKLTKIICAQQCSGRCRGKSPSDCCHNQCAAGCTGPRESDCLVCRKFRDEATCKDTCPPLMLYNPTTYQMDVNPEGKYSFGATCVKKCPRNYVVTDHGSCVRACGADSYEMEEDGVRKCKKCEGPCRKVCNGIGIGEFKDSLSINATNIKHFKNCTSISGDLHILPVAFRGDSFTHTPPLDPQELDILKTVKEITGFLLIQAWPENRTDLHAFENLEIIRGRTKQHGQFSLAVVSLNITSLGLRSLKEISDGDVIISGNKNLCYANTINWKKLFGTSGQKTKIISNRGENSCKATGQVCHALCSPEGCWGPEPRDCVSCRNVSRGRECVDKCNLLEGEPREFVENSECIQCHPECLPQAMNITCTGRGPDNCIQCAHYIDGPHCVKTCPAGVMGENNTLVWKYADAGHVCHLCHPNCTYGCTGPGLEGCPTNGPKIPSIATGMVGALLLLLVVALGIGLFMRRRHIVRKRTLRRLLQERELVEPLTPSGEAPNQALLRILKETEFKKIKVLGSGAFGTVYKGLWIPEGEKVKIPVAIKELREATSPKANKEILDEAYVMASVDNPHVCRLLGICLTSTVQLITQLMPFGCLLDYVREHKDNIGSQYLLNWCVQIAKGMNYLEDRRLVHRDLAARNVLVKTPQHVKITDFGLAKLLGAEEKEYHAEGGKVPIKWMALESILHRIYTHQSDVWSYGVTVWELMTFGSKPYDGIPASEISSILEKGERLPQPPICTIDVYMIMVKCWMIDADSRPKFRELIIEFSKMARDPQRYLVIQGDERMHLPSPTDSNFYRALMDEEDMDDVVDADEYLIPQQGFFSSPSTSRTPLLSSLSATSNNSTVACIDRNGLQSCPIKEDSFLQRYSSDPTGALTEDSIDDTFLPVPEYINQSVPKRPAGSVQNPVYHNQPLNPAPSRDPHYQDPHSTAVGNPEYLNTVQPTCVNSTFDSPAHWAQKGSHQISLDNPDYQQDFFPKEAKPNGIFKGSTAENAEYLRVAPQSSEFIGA
# assay details: Biochemical EGFR kinase inhibition assay (Lance Ultra TR-FRET), wildtype
# reported conditions: IC50 WT (nM), 100 μM ATP
property label: IC50

Worked examples, 2 compounds total:
Query: Please give the measured IC50 for this compound: CC(=O)N1CCC(n2cc(C#Cc3cnc(Nc4ccnc(-c5cnn(S(=O)(=O)C6CC6)c5)n4)cc3N3CCCC(CO)C3)cn2)CC1 (stereo not drawn)
Result: > 10000 nM

Query: Item: CN(C)CCC1CCN(c2cc(Nc3ccnc(-c4cnn(S(=O)(=O)C5CC5)c4)n3)ncc2C#Cc2cnn(C(F)(F)F)c2)CC1
Result: 4970 nM

***
Query: Please give the measured IC50 for this compound: O=S(=O)(C1CC1)N1CCC(C#Cc2cnc(Nc3ccnc(-c4cnn(S(=O)(=O)C5CC5)c4)n3)cc2NC2CCC(O)CC2)C1 (stereo not drawn)
Result: > 10000 nM

Query: Item: CN(C)CCn1cc(C#Cc2cnc(Nc3ccnc(-c4cnn(S(=O)(=O)C5CC5)c4)n3)cc2N2CCC(NCCF)CC2)cn1
Result: > 10000 nM

Query: Item: O=S(=O)(C1CC1)n1cc(-c2nccc(Nc3cc(N4CCC(CO)CC4)c(C#Cc4cnn(C5CC5(F)F)c4)cn3)n2)cn1 (stereo not drawn)
Result: > 10000 nM

Query: Item: O=S(=O)(C1CC1)n1cc(-c2nccc(Nc3cc(NC4CCC(CO)CC4)c(C#CC4(F)CCOC4)cn3)n2)cn1 (stereo not drawn)
Result: 8890 nM

---

# target under test: UniProtKB P00533
# assay details: Biochemical EGFR kinase inhibition assay (Lance Ultra TR-FRET), wildtype
# reported conditions: IC50 WT (nM), 100 μM ATP
Measured IC50, listed per entry for reference.

Query: IC50 of Cn1cc(C#Cc2cnc(Nc3ccnc(-c4cnn(S(=O)(=O)C5CC5)c4)n3)cc2N[C@H]2CC[C@@H](O)CC2)cn1 on UniProtKB P00533?
Result: > 10000 nM

Query: Item: O=S(=O)(C1CC1)n1cc(-c2nccc(Nc3cc(NC4CCC(O)CC4)c(C#CC4(O)CCOC4)cn3)n2)cn1 (stereo not shown)
Result: 5310 nM

Query: Item: CC1(CO)CCN(c2cc(Nc3ccnc(-c4cnn(S(=O)(=O)C5CC5)c4)n3)ncc2C#Cc2cnn(C(F)(F)F)c2)CC1
Result: > 10000 nM

Query: Item: O=S(=O)(C1CC1)n1cc(-c2nccc(Nc3cc(NC[C@H]4CC[C@H](O)CC4)c(C#CC4CC5CCC4O5)cn3)n2)cn1 (stereo partly shown)
Result: > 10000 nM

Query: Item: CN1CCN(Cc2ccc(C#Cc3cnc(Nc4ccnc(-c5cnn(S(=O)(=O)C6CC6)c5)n4)cc3N[C@H]3CC[C@@H](CO)CC3)cc2)CC1
Result: 1130 nM

Query: Item: CC1(CO)CCN(c2cc(Nc3ccnc(-c4cnn(S(=O)(=O)C5CC5)c4)n3)ncc2C#Cc2cnn(CC3CCCOC3)c2)CC1 (stereo not shown)
Result: 4180 nM

Query: Item: CN(C)CCC1CCCN(c2cc(Nc3ccnc(-c4cnn(S(=O)(=O)C5CC5)c4)n3)ncc2C#Cc2cnn(CCF)c2)C1 (stereo not shown)
Result: 1790 nM

Query: Item: CC1(O)CCN(c2cc(Nc3ccnc(-c4cnn(S(=O)(=O)C5CC5)c4)n3)ncc2C#Cc2ccc(C(=O)N3CCC(O)CC3)cc2)CC1
Result: 9930 nM

Query: Item: O=S(=O)(C1CC1)n1cc(-c2nccc(Nc3cc(N4C[C@@H]5[C@@H](CO)[C@@H]5C4)c(C#Cc4cnn(C(F)(F)F)c4)cn3)n2)cn1
Result: > 10000 nM

Query: Item: CN1CCC2(CC1)CCN(c1cc(Nc3ccnc(-c4cnn(S(=O)(=O)C5CC5)c4)n3)ncc1C#Cc1cnn(C3CC3)c1)CC2
Result: 4540 nM

Query: Item: CC1(CO)CCN(c2cc(Nc3ccnc(-c4cnn(S(=O)(=O)C5CC5)c4)n3)ncc2C#CCCN2CCOCC2)CC1
Result: 1250 nM

Query: Item: O=S(=O)(C1CC1)n1cc(-c2nccc(Nc3cc(N4CCC5(CCO5)CC4)c(C#Cc4cccnc4)cn3)n2)cn1
Result: > 10000 nM

Query: Item: CC1(CO)CCN(c2cc(Nc3ccnc(-c4cnn(S(=O)(=O)C5CC5)c4)n3)ncc2C#CC2CCO[C@H]2C(F)(F)F)CC1 (stereo partly shown)
Result: > 10000 nM
